The measurements presented in this section are drawn from paper PMC10004559.

Here the recorded kcat is given for each entry.
- tested_system: PKM2 N75L (Homo sapiens, UniProt P14618, N75L)
- Construct: made in house; host or cells: E. coli BL21(DE3) pLysS
- Sequence (P14618 whole entry N75L): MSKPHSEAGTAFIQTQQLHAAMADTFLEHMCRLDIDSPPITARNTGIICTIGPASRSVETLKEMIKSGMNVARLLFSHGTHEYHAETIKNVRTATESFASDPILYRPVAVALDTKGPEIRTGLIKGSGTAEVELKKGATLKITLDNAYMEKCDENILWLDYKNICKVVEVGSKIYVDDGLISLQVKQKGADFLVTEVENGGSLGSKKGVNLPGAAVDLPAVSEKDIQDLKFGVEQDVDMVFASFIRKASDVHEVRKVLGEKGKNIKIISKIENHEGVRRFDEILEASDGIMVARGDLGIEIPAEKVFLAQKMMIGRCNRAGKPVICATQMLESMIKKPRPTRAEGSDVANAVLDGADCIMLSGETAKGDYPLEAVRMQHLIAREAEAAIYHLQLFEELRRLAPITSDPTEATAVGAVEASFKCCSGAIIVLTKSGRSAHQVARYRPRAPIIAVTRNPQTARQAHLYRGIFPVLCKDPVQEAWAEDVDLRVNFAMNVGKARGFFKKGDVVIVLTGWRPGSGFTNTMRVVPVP
- assay_method_text: PKM2-LDH coupled pyruvate kinase activity assay
- Type: biochemical
- measurement_parameters: 4200 nM PKM2 N75L in presence of 2 mM of the labelled AA; PEP 0.025–8 mM, ADP 0.8 mM

## Task Using the record for "N[C@@H](CS)C(=O)O" , state its measured kcat.
## Result 0.008±0.0 ×10^3 min^-1

## Task Using the record for "NC(=O)C[C@H](N)C(=O)O" , state its measured kcat.
## Result 0.012±0.0 ×10^3 min^-1

## Task Using the record for N[C@@H](CC(=O)O)C(=O)O [Asp, aspartate] , state its measured kcat.
## Result 0.012±0.0 ×10^3 min^-1

## Task Using the record for "CC(C)[C@H](N)C(=O)O" , state its measured kcat.
## Result 0.008±0.0 ×10^3 min^-1

====

Here the recorded Vmax is given for each entry.
- tested_system: PKM2 N75L (Homo sapiens, UniProt P14618, N75L)
- Construct: made in house; host or cells: E. coli BL21(DE3) pLysS
- assay_method_text: PKM2-LDH coupled pyruvate kinase activity assay
- Format: biochemical
- measurement_parameters: 4200 nM PKM2 N75L in presence of 2 mM of the labelled AA; PEP 0.025–8 mM, ADP 0.8 mM
Field: numeric (µM/min). Do not append units.

CC(C)[C@H](N)C(=O)O [Val, valine]
34
N[C@@H](CS)C(=O)O [Cys, cysteine]
33
NC(=O)C[C@H](N)C(=O)O [Asn, asparagine]
50

Moving on to another molecule below.
## Task Using the record for N[C@@H](CC(=O)O)C(=O)O [Asp, aspartate] , state its measured Vmax.
## Result 51

====

Here the recorded kcat is given for each entry.
- tested_system: PKM2 R106A (Homo sapiens, UniProt P14618, R106A)
- Construct: made in house; host or cells: E. coli BL21(DE3) pLysS
- Sequence (P14618 whole entry R106A): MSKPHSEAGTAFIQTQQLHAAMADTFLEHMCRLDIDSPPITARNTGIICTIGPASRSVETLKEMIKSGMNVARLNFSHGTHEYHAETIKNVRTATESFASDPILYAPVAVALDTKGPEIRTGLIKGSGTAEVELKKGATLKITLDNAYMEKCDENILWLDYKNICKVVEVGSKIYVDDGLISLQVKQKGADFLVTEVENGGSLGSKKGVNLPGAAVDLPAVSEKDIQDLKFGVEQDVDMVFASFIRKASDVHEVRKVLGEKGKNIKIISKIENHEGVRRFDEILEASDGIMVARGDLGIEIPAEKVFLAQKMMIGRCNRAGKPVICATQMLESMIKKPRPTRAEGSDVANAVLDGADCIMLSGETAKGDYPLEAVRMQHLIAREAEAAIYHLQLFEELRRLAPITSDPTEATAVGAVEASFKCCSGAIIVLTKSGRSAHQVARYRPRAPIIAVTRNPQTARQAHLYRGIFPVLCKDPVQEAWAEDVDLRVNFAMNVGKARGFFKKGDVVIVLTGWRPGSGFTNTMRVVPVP
- assay_method_text: PKM2-LDH coupled pyruvate kinase activity assay
- Type: biochemical
- measurement_parameters: 50 nM PKM2 R106A in presence of 2 mM of the labelled AA (Val 10 mM); PEP 0.025–8 mM, ADP 0.8 mM; Cys data fitted with allosteric sigmoidal equation

Look over these answered cases.
N[C@@H](CC(=O)O)C(=O)O [Asp, aspartate]
5.9±0.1 ×10^3 min^-1
N[C@@H](CS)C(=O)O
5.8±0.2 ×10^3 min^-1
CC(C)[C@H](N)C(=O)O
6.9±0.2 ×10^3 min^-1

## Task GET kcat where system = PKM2 R106A (Homo sapiens, UniProt P14618, R106A) and item = "NC(=O)C[C@H](N)C(=O)O"
## Result 6.3±0.2 ×10^3 min^-1

====

- tested_system: PKM2 R106A (Homo sapiens, UniProt P14618, R106A)
- Construct: made in house; host or cells: E. coli BL21(DE3) pLysS
- assay_method_text: PKM2-LDH coupled pyruvate kinase activity assay
- Type: biochemical
- measurement_parameters: 50 nM PKM2 R106A in presence of 2 mM of the labelled AA (Val 10 mM); PEP 0.025–8 mM, ADP 0.8 mM; Cys data fitted with allosteric sigmoidal equation
Here the recorded Vmax is given for each entry.
Report field: quantity (unit follows the number).

Look over these answered cases.
N[C@@H](CS)C(=O)O [Cys, cysteine]
291 ± 9 µM/min
NC(=O)C[C@H](N)C(=O)O [Asn, asparagine]
318 ± 8 µM/min
N[C@@H](CC(=O)O)C(=O)O [Asp, aspartate]
295 ± 6 µM/min

Moving on to another molecule below.
## Task Using the record for CC(C)[C@H](N)C(=O)O [Val, valine] , state its measured Vmax.
## Result 346 ± 12 µM/min

====

- tested_system: wtPKM2 (Homo sapiens, UniProt P14618)
- Construct: made in house; host or cells: E. coli BL21(DE3) pLysS
- Sequence (P14618 whole entry): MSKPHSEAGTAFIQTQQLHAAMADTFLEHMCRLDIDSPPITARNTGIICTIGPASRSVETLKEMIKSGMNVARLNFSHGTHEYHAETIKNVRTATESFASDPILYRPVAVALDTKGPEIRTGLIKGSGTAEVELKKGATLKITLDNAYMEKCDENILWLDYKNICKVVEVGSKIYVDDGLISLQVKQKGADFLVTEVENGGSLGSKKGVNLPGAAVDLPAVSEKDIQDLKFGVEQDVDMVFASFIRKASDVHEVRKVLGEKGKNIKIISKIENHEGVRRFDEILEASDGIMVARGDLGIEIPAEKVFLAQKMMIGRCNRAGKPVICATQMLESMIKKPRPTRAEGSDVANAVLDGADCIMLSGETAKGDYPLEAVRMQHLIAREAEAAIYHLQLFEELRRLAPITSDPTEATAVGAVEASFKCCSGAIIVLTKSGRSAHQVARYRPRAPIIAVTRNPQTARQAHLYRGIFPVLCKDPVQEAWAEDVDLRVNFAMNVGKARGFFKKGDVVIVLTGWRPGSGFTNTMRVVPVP
- assay_method_text: PKM2-LDH coupled pyruvate kinase activity assay
- Format: biochemical
- measurement_parameters: 10 nM wtPKM2 in presence of 2 mM of the labelled AA; PEP varied, ADP 0.8 mM
value_kind: Vmax (µM/min)
Field: numeric (µM/min). Do not append units.

Look over these answered cases.
NC(=O)C[C@H](N)C(=O)O
113
N[C@@H](CS)C(=O)O
65
N[C@@H](CC(=O)O)C(=O)O [Asp, aspartate]
104

Moving on to another molecule below.
## Task GET Vmax where system = wtPKM2 (Homo sapiens, UniProt P14618) and item = "CC(C)[C@H](N)C(=O)O"
## Result 74

====

Here the recorded kcat is given for each entry.
- tested_system: wtPKM2 (Homo sapiens, UniProt P14618)
- Construct: made in house; host or cells: E. coli BL21(DE3) pLysS
- assay_method_text: PKM2-LDH coupled pyruvate kinase activity assay
- Format: biochemical
- measurement_parameters: 10 nM wtPKM2 in presence of 2 mM of the labelled AA; PEP varied, ADP 0.8 mM

## Task Using the record for NC(=O)C[C@H](N)C(=O)O [Asn, asparagine] , state its measured kcat.
## Result 11.3±0.4 ×10^3 min^-1

====

- tested_system: PKM2 N70D (Homo sapiens, UniProt P14618, N70D)
- Sequence (P14618 whole entry N70D): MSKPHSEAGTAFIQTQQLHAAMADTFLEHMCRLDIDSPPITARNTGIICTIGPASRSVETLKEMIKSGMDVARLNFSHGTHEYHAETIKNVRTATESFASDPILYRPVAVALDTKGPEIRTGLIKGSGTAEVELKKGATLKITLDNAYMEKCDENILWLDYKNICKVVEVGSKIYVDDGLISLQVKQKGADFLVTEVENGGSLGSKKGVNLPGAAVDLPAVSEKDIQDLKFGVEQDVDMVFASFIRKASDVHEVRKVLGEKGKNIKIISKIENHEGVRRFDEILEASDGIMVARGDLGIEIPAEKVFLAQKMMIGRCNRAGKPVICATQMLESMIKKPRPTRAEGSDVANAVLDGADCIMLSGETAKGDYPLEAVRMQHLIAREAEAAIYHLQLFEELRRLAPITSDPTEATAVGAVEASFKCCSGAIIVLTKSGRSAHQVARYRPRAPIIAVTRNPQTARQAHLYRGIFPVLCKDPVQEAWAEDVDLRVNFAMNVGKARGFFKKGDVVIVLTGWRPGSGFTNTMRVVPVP
- assay_method_text: PKM2-LDH coupled pyruvate kinase activity assay
- measurement_parameters: 65 nM PKM2 N70D in presence of 2 mM of the labelled AA; PEP 0.025–8 mM, ADP 0.8 mM
Here the recorded Vmax is given for each entry.
Field: numeric (µM/min). Do not append units.

## Task GET Vmax where system = PKM2 N70D (Homo sapiens, UniProt P14618, N70D) and item = CC(C)[C@H](N)C(=O)O [Val, valine]
## Result 324

## Task GET Vmax where system = PKM2 N70D (Homo sapiens, UniProt P14618, N70D) and item = N[C@@H](CS)C(=O)O [Cys, cysteine]
## Result 334

## Task GET Vmax where system = PKM2 N70D (Homo sapiens, UniProt P14618, N70D) and item = NC(=O)C[C@H](N)C(=O)O [Asn, asparagine]
## Result 340

## Task GET Vmax where system = PKM2 N70D (Homo sapiens, UniProt P14618, N70D) and item = N[C@@H](CC(=O)O)C(=O)O [Asp, aspartate]
## Result 307

====

- tested_system: PKM2 N70D (Homo sapiens, UniProt P14618, N70D)
- assay_method_text: Ligand binding assay, intrinsic tryptophan fluorescence quenching
- measurement_parameters: no AA ligand, read-out: Kd, ADP as titrant
- Experimental: All ligand binding studies were conducted in a buffer containing 1.6 μM enzyme dissolved in 20 mM Tris-HCl (pH 7.5) and 150 mM KCl. […] The decrease of intrinsic tryptophan fluorescence with increasing substrate concentration was measured using a Cary Eclipse Fluorescence Spectrophotometer (Agilent Technologies, Santa Clara, CA). […]
value_kind: Kd (µM)
Field: numeric (µM). Do not append units.

## Task Using the record for Nc1ncnc2c1ncn2[C@@H]1O[C@H](COP(=O)(O)OP(=O)(O)O)[C@@H](O)[C@H]1O [ADP, adenosine diphosphate] , state its measured Kd.
## Result 644

====

Here the recorded kcat is given for each entry.
- tested_system: wtPKM2 (Homo sapiens, UniProt P14618)
- Construct: made in house; host or cells: E. coli BL21(DE3) pLysS
- assay_method_text: PKM2-LDH coupled pyruvate kinase activity assay
- Format: biochemical
- measurement_parameters: 10 nM wtPKM2 in presence of 2 mM of the labelled AA; PEP varied, ADP 0.8 mM

Look over these answered cases.
CC(C)[C@H](N)C(=O)O [Val, valine]
7.4±0.5 ×10^3 min^-1
N[C@@H](CS)C(=O)O [Cys, cysteine]
6.5±0.7 ×10^3 min^-1

Moving on to another compound below.
## Task GET kcat where system = wtPKM2 (Homo sapiens, UniProt P14618) and item = N[C@@H](CC(=O)O)C(=O)O [Asp, aspartate]
## Result 10.4±0.2 ×10^3 min^-1
